TEST_DESCRIPTION: soluble on expression in E. coli; label from the status in PepcDB or PDB records

- MONOMER_SEQUENCE: "GNSKKHNLILIGAPGSGKGTQCEFIKKEYGLAHLSTGDMLREAIKNGTKIGLEAKSIIESGNFVGDEIVLGLVKEKFDLGVCVNGFVLDGFPRTIPQAEGLAKILSEIGDSLTSVIYFEIDDSEIIERISGRCTHPASGRIYHVKYNPPKQPGIDDVTGEPLVWRDDDNAEAVKVRLDVFHKQTAPLVKFYEDLGILKRVNAKLPPKEVTEQIKKIL"
  soluble on expression in E. coli: "soluble"
- MONOMER_SEQUENCE: "GMTRIASHRGGTLEFGDSTPHGFTATAAMALEEVEFDLHPTADGAIVVHHDPTLDATTDMTGAIVDMTLAKVKTATIRYGAGSHPMTLEELCALYVDSHVNFRCEIKPGVDGLPYEGFVALVIAGLERHSMLERTTFSSFLLASMDELWKATTRPRLWLVSPSVLQQLGPGAVIETAIAHSIHEIGVHIDTADAGLMAQVQAAGLDFGCWAAHTPSQITKALDLGVKVFTTDRPTLAIALRTEHRMEASV"
  soluble on expression in E. coli: "soluble"
- MONOMER_SEQUENCE: "MAHHHHHHMCDTANEADGKKLNKKAKSISVVKFKDKEKKKFVSLSSKEETSVQDLPLGCPVCYVPLTVDFNLLNQVEEQDEEEMIVCKEETTYINKSFINRINTNEYRSSTKIEAVFEEVKNVIHTTDDKCLIFSQYCSMLDLIEYHLKKHNIICSKLLGYMPMVSRNNILYNFNEDKHLRVLLISLKAGGEGLNLQVANRIFIVDPWWNPAAELQAIQRAHRIGQTKTVYATRFIIENTVEEKIVQLQNKKQLVFDCTIGDSGNAMQKLTKEDLAFLFHA"
  soluble on expression in E. coli: "not soluble"
- MONOMER_SEQUENCE: "RALDTEDIQKVFTKLPQSSAVTSDMRRTQELFVLMFLLRGLPFVDLAYLRKSDLHDNVITYRRRKTGRPLSVTLTPEAMAILKRYMNRDTSSPYLFPLLNSREGTKEAYHEYQLALRNFNRQLMLLGEMLGLGDKLSSYTARHTWATTAYYCEIHPGVISEAMGHSSITVTETYLKPFRNKKIDEANKKVVDFIKRSIPIAMC"
  soluble on expression in E. coli: "not soluble"
- MONOMER_SEQUENCE: "MTGNSFNSMKDFLKQTGGYAVIDGGLATEFERHGADLNDPLWSAKCLVTSPHLIHTVHLDYLEAGADIISSASYQATIQGFEAKGFSREESESLLKKSVEIATEARNSYYDKCGTSSSMDDKILKKRPILVAASVGSYGAYLADGSEYSGIYGDSITLEKLKDFHRRRLQVLAESGADLIAFETIPNKIEAQAFADLLEEGDVKIPGWFSFNSKDGVNVVSGDSIKECISIAENCEKVVAVGINCTPPRFIEGLVLEIEKVTSKPILVYPNSGESYDADRKEWVENTGVGDEDFVSYVEKWMDAGVSLLGGCCRTTPTTIRAIHKRLVNRRSL"
  soluble on expression in E. coli: "soluble"
- MONOMER_SEQUENCE: "MGSDKIHHHHHHMRPDCTDFRQLFLDDVPMMDMRAPVEFAKGAFPGVVNLPLMNDQERQKVGTCYKQQGQAAAIALGHQLVSGATKQARLEAWAAFAKAHPDGYLYCFRGGLRSQIVQGWLRDEAGIQYPRVKGGYKAMRTFLLETTQQAVEQCDFVLVGGLTGTGKTDVLHQLDNVLDLEGHANHRGSSFGKRATAQPAQIDFENQLAIDVLKKRARGIGQFVLEDEGRIVGSCTVPLELYQGMQHYPLVWLEDSFTNRVERILRDYVVNLSAEFKAVHGEEDGPRLFAERMLQSMANIYKRLGGERHQRLSEMLREALQEQQRSGAVDLHRGWIEGLLNEYYDPMYAYQRAAKAERIEFAGDAVEVREYLKARALRQPRK"
  soluble on expression in E. coli: "not soluble"
- MONOMER_SEQUENCE: "MAVYRNVQVNFWQDDFVLDLTPEERYFYVYLLTCSKTTQCGIFPFPKRLAEMETGYNRETVDKLVQRFVDYGKILYDADTRELFVLNWLRYNPVTNTNVEKCVLRELKSVKNKEFVHMFLQKCVEEELNVPMLLAHFGMPSDLAVDDVEPVCEETEAEEEVIEEETGSRVFSFYEQHFGSLSPFAVEELSAWMEDLSEELVLKALQIAFENNKRTVAYVKGILRGWHGKGFTKVCEVEADTAKFRKKESSVSTGETEEFLARCEEWEKNAPSEEELQRFLAERGWRP"
  soluble on expression in E. coli: "not soluble"
- MONOMER_SEQUENCE: "LSWKRCAGCGGKIADRFLLYAMDSYWHSRCLKCSSCQAQLGDIGTSSYTKSGMILCRNDYIRLFGNSGACSACGQSIPASELVMRAQGNVYHLKCFTCSTCRNRLVPGDRFHYINGSLFCEHDRPTALINGHLNSGGSGGSGGSGGDVMVVGEPTLMGGEFGDEDERLITRLENTQFDAANGIDDETRESGSIEF"
  soluble on expression in E. coli: "soluble"
- MONOMER_SEQUENCE: "MRGSHHHHHHGSVEVQVLIENVVFARNFVAEHGLSLLLKKGNKEIVVDTGQSENFIKNCGLMGIDVGRIKKVVLTHGHYDHIGGLKGLLERNPEVKIYTHKEILNKKYAMRKGGQFEEIGFDLSFYEKYKNNFVLIDKDAEIEEGFYVITNTDITYDNEFTTKNFFVEKEGKRIPDKFLDEVFVVVKEEDGINVVTGCSHAGILNILETARNRFGVSYIKSLIGGFHLRGMEEEKVKDIARKIEEYGVKKVLTGHCTGIDEYGFLKSVLKDKISYLTTSSSIVV"
  soluble on expression in E. coli: "soluble"
- MONOMER_SEQUENCE: "MSHYDILQAPVISEKAYSAMERGVYSFWVSPKATKTEIKDAIQQAFGVRVIGISTMNVPGKRKRVGRFIGQRNDRKKAIVRLAEGQSIEALAGQA"
  soluble on expression in E. coli: "soluble"
- MONOMER_SEQUENCE: "MGSDKIHHHHHHMEMFAQFSVEGQRMYGMLHTPDGSATGQQAPPQGWPSVVIVHGFTGDKVSSHRLLVLLARRLTAAGIAALRFDCRGSGESQGDFSEMTVGREVQDVEAAFDYVRHQPGLDPERVMLLGYSMGGLVSALAAEKVRPHRFALWSPALPELWLRHLRGGLLPPVISDYGGWPLGRAFLQEVVQTRPLEAAARWGGVAHVFHGDRDQTCPVEWGVRTPKPCAATPPRFPARGTRMTRSNR"
  soluble on expression in E. coli: "not soluble"
- MONOMER_SEQUENCE: "MGSDKIHHHHHHMNVAILLAAGKGERMSENVPKQFLEIEGRMLFEYPLSTFLKSEAIDGVVIVTRREWFEVVEKRVFHEKVLGIVEGGDTRSQSVRSALEFLEKFSPSYVLVHDSARPFLRKKHVSEVLRRARETGAATLALKNSDALVRVENDRIEYIPRKGVYRILTPQAFSYEILKKAHENGGEWADDTEPVQKLGVKIALVEGDPLCFKVTFKEDLELARIIAREWERIP"
  soluble on expression in E. coli: "soluble"
